targetDesc: ALPK1 (Homo sapiens)
Sequence (Q96QP1 whole entry): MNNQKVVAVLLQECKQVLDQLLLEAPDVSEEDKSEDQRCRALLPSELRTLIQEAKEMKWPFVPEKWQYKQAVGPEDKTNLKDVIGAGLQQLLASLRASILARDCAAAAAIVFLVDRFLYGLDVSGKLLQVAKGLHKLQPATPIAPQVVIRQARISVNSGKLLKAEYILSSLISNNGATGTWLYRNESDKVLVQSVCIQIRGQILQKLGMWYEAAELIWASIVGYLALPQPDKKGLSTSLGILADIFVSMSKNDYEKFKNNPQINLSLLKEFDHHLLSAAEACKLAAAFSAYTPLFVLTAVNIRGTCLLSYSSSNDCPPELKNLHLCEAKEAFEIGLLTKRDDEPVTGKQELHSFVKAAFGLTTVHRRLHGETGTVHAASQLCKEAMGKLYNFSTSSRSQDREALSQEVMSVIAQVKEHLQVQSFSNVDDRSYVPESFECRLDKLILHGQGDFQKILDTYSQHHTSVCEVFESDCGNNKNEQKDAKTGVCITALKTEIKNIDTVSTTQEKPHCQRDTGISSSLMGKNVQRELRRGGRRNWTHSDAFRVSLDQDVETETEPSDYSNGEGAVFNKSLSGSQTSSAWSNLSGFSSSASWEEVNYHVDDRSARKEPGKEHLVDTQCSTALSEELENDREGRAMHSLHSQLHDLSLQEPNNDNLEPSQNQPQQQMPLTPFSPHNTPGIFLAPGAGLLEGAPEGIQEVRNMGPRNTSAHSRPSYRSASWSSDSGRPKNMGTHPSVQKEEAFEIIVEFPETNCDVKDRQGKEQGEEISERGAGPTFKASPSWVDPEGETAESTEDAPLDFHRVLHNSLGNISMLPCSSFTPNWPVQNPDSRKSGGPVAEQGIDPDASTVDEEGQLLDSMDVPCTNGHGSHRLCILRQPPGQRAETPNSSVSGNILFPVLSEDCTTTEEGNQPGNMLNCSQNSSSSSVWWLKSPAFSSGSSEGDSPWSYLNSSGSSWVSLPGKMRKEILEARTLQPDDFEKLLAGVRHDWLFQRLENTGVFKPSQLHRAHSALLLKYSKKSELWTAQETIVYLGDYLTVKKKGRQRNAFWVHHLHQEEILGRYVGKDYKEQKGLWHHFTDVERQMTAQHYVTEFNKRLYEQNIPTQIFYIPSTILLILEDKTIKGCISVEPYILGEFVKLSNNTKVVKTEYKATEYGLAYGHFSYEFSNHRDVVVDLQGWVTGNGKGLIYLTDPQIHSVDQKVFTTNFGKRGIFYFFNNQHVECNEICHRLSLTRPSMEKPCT
procedureText: IL8 secretion in HEK293 cells (IL8 ELISA) as indicator of ALPK1 activation
conditionDescription: without FBS, serial dilutions, 4 hours
quantity: IL8 secretion in HEK293 cells

[[record]]
compound = "CC(=O)OC[C@@H](OC(C)=O)[C@H]1O[C@@H](OP(=O)(O)OP(=O)(O)OC[C@H]2O[C@@H](n3cnc4c(N)ncnc43)[C@H](O)[C@H]2F)[C@@H](OC(C)=O)[C@@H](OC(C)=O)[C@@H]1OC(C)=O"
quantity = "IL8 secretion in HEK293 cells"
observedresult = "increased IL8 secretion"

[[record]]
compound = "CO[C@@H]1[C@H](OC)[C@@H](COP(=O)(O)OP(=O)(O)O[C@@H]2O[C@H]([C@@H](COC(C)=O)OC(C)=O)[C@@H](OC(C)=O)[C@H](OC(C)=O)[C@@H]2OC(C)=O)O[C@H]1n1cnc2c(N)ncnc21"
quantity = "IL8 secretion in HEK293 cells"
observedresult = "increased IL8 secretion"

[[record]]
compound = "Nc1ncnc2c1ncn2[C@@H]1O[C@H](COP(=O)(O)OP(=O)(O)O[C@@H]2OC([C@H](O)CO)[C@@H](O)C(O)C2O)C(F)C1O (stereo in doubt)"
quantity = "IL8 secretion in HEK293 cells"
observedresult = "activate IL8 secretion"

[[record]]
compound = "Nc1ncnc2c1ncn2[C@@H]1O[C@H](COP(O)(=S)OP(=O)(O)O[C@@H]2OC([C@H](O)CO)[C@@H](O)[C@H](O)C2O)[C@H](O)C1O (some centres unmarked)"
quantity = "IL8 secretion in HEK293 cells"
observedresult = "increased IL8 secretion"


Now for another entry.
If you can, please state the reported IL8 secretion in HEK293 cells value of CC(=O)OC[C@@H](OC(C)=O)C1O[C@@H](OP(=O)(O)OP(O)(=S)OC[C@H]2O[C@@H](n3cnc4c(N)ncnc43)C(O)C2O)C(OC(C)=O)C(OC(C)=O)[C@@H]1OC(C)=O (some centres unmarked) .
activate IL8 secretion
